# Tested on: HeLa Kyoto;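 further: HeLa Kyoto cells synchronized by double thymidine or nocodazole block, proteins quantified by TMT10plex mass spectrometry, three independent biological replicates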
# Measurement description: melting temperature (median over replicates), in situ; higher = more thermally stable
# Experimental setup: cell cycle stage: G1/S
Label FALSE if melting temperature falls below 50 °C; label TRUE in every other case.

Answer whether melting temperature of MSVRVARVAWVRGLGASYRRGASSFPVPPPGAQGVAELLRDATGAEEEAPWAATERRMPGQCSVLLFPGQGSQVVGMGRGLLNYPRVRELYAAARRVLGYDLLELSLHGPQETLDRTVHCQPAIFVASLAAVEKLHHLQPSVIENCVAAAGFSVGEFAALVFAGAMEFAEGLYAVKIRAEAMQEASEAVPSGMLSVLGQPQSKFNFACLEAREHCKSLGIENPVCEVSNYLFPDCRVISGHQEALRFLQKNSSKFHFRRTRMLPVSGAFHTRLMEPAVEPLTQALKAVDIKKPLVSVYSNVHAHRYRHPGHIHKLLAQQLVSPVKWEQTMHAIYERKKGRGFPQTFEVGPGRQLGAILKSCNMQAWKSYSAVDVLQTLEHVDLDPQEPPR [MCAT] is greater than or equal to 50 °C.
TRUE

Answer whether melting temperature of MSSEEGKLFVGGLNFNTDEQALEDHFSSFGPISEVVVVKDRETQRSRGFGFITFTNPEHASVAMRAMNGESLDGRQIRVDHAGKSARGTRGGGFGAHGRGRSYSRGGGDQGYGSGRYYDSRPGGYGYGYGRSRDYNGRNQGGYDRYSGGNYRDNYDN [RBM3] is greater than or equal to 50 °C.
TRUE

Answer whether melting temperature of MSLEQRSLHCKPEEALEAQQEALGLVCVQAATSSSSPLVLGTLEEVPTAGSTDPPQSPQGASAFPTTINFTRQRQPSEGSSSREEEGPSTSCILESLFRAVITKKVADLVGFLLLKYRAREPVTKAEMLESVIKNYKHCFPEIFGKASESLQLVFGIDVKEADPTGHSYVLVTCLGLSYDGLLGDNQIMPKTGFLIIVLVMIAMEGGHAPEEEIWEELSVMEVYDGREHSAYGEPRKLLTQDLVQEKYLEYRQVPDSDPARYEFLWGPRALAETSYVKVLEYVIKVSARVRFFFPSLREAALREEEEGV [MAGEA1] is greater than or equal to 50 °C.
FALSE

Answer whether melting temperature of MAAEGWIWRWGWGRRCLGRPGLLGPGPGPTTPLFLLLLLGSVTADITDGNSEHLKREHSLIKPYQGVGSSSMPLWDFQGSTMLTSQYVRLTPDERSKEGSIWNHQPCFLKDWEMHVHFKVHGTGKKNLHGDGIALWYTRDRLVPGPVFGSKDNFHGLAIFLDTYPNDETTERVFPYISVMVNNGSLSYDHSKDGRWTELAGCTADFRNRDHDTFLAVRYSRGRLTVMTDLEDKNEWKNCIDITGVRLPTGYYFGASAGTGDLSDNHDIISMKLFQLMVEHTPDEESIDWTKIEPSVNFLKSPKDNVDDPTGNFRSGPLTGWRVFLLLLCALLGIVVCAVVGAVVFQKRQERNKRFY [LMAN2] is greater than or equal to 50 °C.
TRUE
